Values compiled from PubChem BioAssay (NCI).

Assay protocol: NCI Yeast Anticancer Drug Screen. Data for the cln2 rad14 strain (AID 165)
Assay conditions: S. cerevisiae cln2 rad14 strain, at 50.0 µM
Experimental: Growth inhibition of yeast strains with defined genetic alterations is measured as a screen for potential anti-cancer activity. Selected strains with alterations in DNA damage repair or cell cycle control were exposed to compounds and growth inhibition was measured relative to vehicle treated controls. The strain used in this assay is cln2 rad14
The panel holds about 79,000 compounds, 15% with a hit somewhere; the sample as a whole holds those more often. The source made the active and inactive calls. Rule as the data show it: active = growth inhibition above about 70%; inactive = the rest. Where a SMILES comes first, the peptide text is derived from it. The star is where a group is joined. Boc = CC(C)(C)OC(=O)*; NHNH2 = NN*
Could you please pick one outcome from this set? y (active), n (inactive)

// query Per the assay record, what outcome was assigned to COC(=O)N/N=C(\C)c1sc(-c2nc(C)c(/C(C)=N/NC(=O)OC)s2)nc1C ?
// result n

// query Try the compound Cn1nc(C(F)(F)C(F)(F)C(F)(F)F)nc1C(F)(F)C(F)(F)C(F)(F)F
// result n

// query Try the compound O=S1(=O)C=CC(N/N=C/c2cc(Cl)cc(Cl)c2)=C1
// result n

// query Try the compound CC(C)(C)C1=CC(=C2C(=O)C(=O)c3ccccc3C2=O)C=C(C(C)(C)C)C1=O
// result n

// query Try the compound Nc1cnccn1
// result n

// query Try the compound Cc1nn(C)c(NC(=O)c2ccccc2O)c1SC#N
// result n

// query Try the compound COC(=O)C1CCc2c(ccc3cc(OC)ccc23)C1(C)C(=O)OC (stereo unspecified)
// result n

// query Try the compound Cc1cc([N+](=O)[O-])ccc1Sc1c2ccccc2nc2ccccc12
// result n

// query Try the compound Nc1nc2c(C(=O)NCc3cccs3)nnn2c2cccc(Cl)c12
// result n

// query Try the compound CN(C)c1ccc(C2(c3ccc(N(C)C)cc3)NNC(=O)c3cc(N(C)C)ccc32)cc1
// result n

// query Try the compound Cc1c(Cl)cccc1NC(=O)OC/C=C/c1ccccc1
// result n

// query Try the compound CCO/C(Cc1ccc(Cl)cc1)=N/NC(N)=S
// result n

// query Try the compound O=C1CN(/C=C(\c2ccccc2)S(=O)Cc2ccccc2)C(=S)N1 (stereo unspecified)
// result n

// query Try the compound Cc1[nH]c(=O)[nH]c(=O)c1CCS
// result n

// query Try the compound CCN(CC)CCC1CCCCN1CC(=O)N1c2cc(Cl)ccc2NC(=O)CC1C (stereo unspecified)
// result n

// query Try the compound O=c1cc(CC2(O)CCCCC2)c2ccccc2[nH]1
// result n

// query Try the compound Cc1noc(C)c1CCCOC1COc2ccccc2OCCOCCOc2ccccc2OC1
// result n

// query Try the compound Cc1ccc(S(=O)(=O)N(C)c2cc(Cl)c(C(=O)O)cc2Cl)cc1
// result n

// query Try the compound CC(=O)c1ccccc1[N+](=O)[O-]
// result n

// query Try the compound CCOC(=O)Cc1cccnc1
// result n

// query Try the compound CCN(CC(=O)O)C(=O)c1cccnc1
// result n

// query Try the compound CCC(C)C(NC(=O)C(Cc1c[nH]c2ccccc12)NC(=O)OC(C)(C)C)C(=O)NN (stereo not drawn) (Boc-Trp-Ile-NHNH2; configuration not given here)
// result n

// query Try the compound CCC(CC)C(=O)OCCOCCOCCOC(=O)C(CC)CC
// result n

// query Try the compound CS(=O)(=O)OC[C@H](NC(=O)c1ccccc1)[C@H](COS(C)(=O)=O)NC(=O)c1ccccc1
// result n

// query Try the compound NNC(=O)Sc1ccccc1
// result n

// query Try the compound O=C(O)CC1C(=O)OC2C3COC(=O)c4cc(O)c(O)c(O)c4-c4c(cc(O)c(O)c4O)C(=O)OC2C(OC(=O)c2cc(O)c(O)c4c2C1C(O)C(=O)O4)C(OC(=O)c1cc(O)c(O)c(O)c1)O3 (stereo unspecified)
// result n

// query Try the compound CCN(CC)Cc1ncccc1O
// result n

// query Try the compound Cc1ccc(CS(=O)(=O)c2ccc(C)cc2)cc1
// result n

// query Try the compound CC(C)CCN(C(=O)CCl)c1ccccc1
// result n

// query Try the compound Cc1ccc(C(=O)C[n+]2ccccc2)c(O)c1
// result n

// query Try the compound COc1ccc(NC(=O)Nc2cc(C(F)(F)F)ccc2Cl)cc1
// result n

// query Try the compound CN(N)c1cnn(-c2ccccc2)c(=O)c1Cl
// result n

// query Try the compound N#CCCOCC(OCCC#N)C(OCCC#N)C(OCCC#N)C(COCCC#N)OCCC#N (stereo unspecified)
// result n

// query Try the compound CCNc1nc(C)nc2c1cnn2C
// result n

// query Try the compound Brc1cccc(-c2nnc(-c3ccc4ccccc4c3)o2)c1
// result n

// query Try the compound CCC(=O)N1C(=O)C(C)C23c4ccccc4C(=O)N2CCCN13 (stereo unspecified)
// result n

// query Try the compound O=C1CCCC(CCc2ccccc2)O1 (stereo unspecified)
// result n

// query Try the compound COc1cc(C(=O)Oc2c(C(C)=O)sc3c2c(=O)n(-c2ccccc2)c(=S)n3-c2ccccc2)cc(OC)c1OC
// result n

// query Try the compound c1ccc(-c2nn(-c3ccccc3)[n+](-c3ccccc3)n2)cc1
// result n

// query Try the compound COc1cc(OC)c(C2CC(C)(O)Oc3cc4c(cc32)OCO4)c(OC)c1 (stereo unspecified)
// result n

// query Try the compound CCOC(=O)COc1ccc(C)c2c1C(=O)CC2
// result n

// query Try the compound Cc1ccc2c(c1)C(=Nc1ccc(Cl)cc1)C(=O)N2
// result n

// query Try the compound NCCC1([N+](=O)[O-])CCNCC1
// result n

// query Try the compound CCCCNc1ccc(Cl)cc1
// result n

// query Try the compound C1=C2/CC[C@H](Sc3ccccc3)[C@H]2C2(CCCCC/1)OCCO2
// result n

// query Try the compound CCCc1c(OC)c(=O)c2c(OC)cc(OC)c3c4c(OC)cc(OC)c5c(=O)c(OC)c(CCC)c(c1c23)c54
// result y
